Item-by-item account of Maximum % inhibition
# experimentalSystem: T1, Human PCSK9 Alexa Fluor 647 (human, UniProt Q8NBP7 31-692, limits assumed, Alexa Fluor 647 label (site not stated))
# T1 construct: Labelled tracer of the TR-FRET assay, 16 nM stock; also called proprotein convertase subtilisin/kexin type 9
# T1 sequence (Q8NBP7 31-692 limits assumed): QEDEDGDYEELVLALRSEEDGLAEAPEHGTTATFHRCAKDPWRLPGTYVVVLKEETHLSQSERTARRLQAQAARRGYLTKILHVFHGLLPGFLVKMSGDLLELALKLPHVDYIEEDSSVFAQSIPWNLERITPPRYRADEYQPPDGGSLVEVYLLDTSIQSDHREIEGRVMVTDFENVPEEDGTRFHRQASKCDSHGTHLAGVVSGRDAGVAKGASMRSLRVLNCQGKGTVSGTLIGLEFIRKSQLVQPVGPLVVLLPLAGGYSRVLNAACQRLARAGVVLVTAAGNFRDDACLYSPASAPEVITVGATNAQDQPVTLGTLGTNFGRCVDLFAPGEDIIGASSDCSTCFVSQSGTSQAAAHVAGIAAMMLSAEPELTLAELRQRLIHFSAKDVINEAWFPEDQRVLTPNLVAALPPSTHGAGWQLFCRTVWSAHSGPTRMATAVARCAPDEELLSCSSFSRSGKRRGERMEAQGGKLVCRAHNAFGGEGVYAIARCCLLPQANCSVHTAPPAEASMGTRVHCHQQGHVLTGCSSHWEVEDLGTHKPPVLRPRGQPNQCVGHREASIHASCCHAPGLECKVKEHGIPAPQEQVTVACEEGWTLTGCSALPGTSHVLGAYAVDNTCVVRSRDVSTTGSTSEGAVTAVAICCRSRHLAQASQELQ
# assayMethodText: TR-FRET competition: PCSK9-Alexa Fluor 647 vs LDLR ECD-Eu kryptate
Bridge positions count the residues as written; N and C are the ends. Square brackets hold non-standard residues; d marks the D form. Bip = N[C@@H](Cc1ccc(-c2ccccc2)cc1)C(=O)O; Phe(4-Cl) = N[C@@H](Cc1ccc(Cl)cc1)C(=O)O; NMeA = CN[C@@H](C)C(=O)O
property: Maximum % inhibition (%)

1) {CH2CO}-FVDTT[Bip][NMeA][Bip][NMeA]ESPCG-NH2 (thioether N-13; SMILES CC(C)[C@@H]1NC(=O)[C@H](Cc2ccccc2)NC(=O)CSC[C@@H](C(=O)NCC(N)=O)NC(=O)[C@@H]2CCCN2C(=O)[C@H](CO)NC(=O)[C@H](CCC(=O)O)NC(=O)[C@H](C)N(C)C(=O)[C@H](Cc2ccc(-c3ccccc3)cc2)NC(=O)[C@H](C)N(C)C(=O)[C@H](Cc2ccc(-c3ccccc3)cc2)NC(=O)[C@H]([C@@H](C)O)NC(=O)[C@H]([C@@H](C)O)NC(=O)[C@H](CC(=O)O)NC1=O, also called 1-10; Ex. No. 1-10) [Ac*-F-V-D-T-T-B-(N-Me)A-B-(N-Me)A-E-S-P-C*-G-NH2] :: 90
2) {CH2CO}-FVPTTF[NMeA][Phe(4-Cl)][NMeA]DAPC-NH2 (thioether N-13; SMILES CC(C)[C@@H]1NC(=O)[C@H](Cc2ccccc2)NC(=O)CSC[C@@H](C(N)=O)NC(=O)[C@@H]2CCCN2C(=O)[C@H](C)NC(=O)[C@H](CC(=O)O)NC(=O)[C@H](C)N(C)C(=O)[C@H](Cc2ccc(Cl)cc2)NC(=O)[C@H](C)N(C)C(=O)[C@H](Cc2ccccc2)NC(=O)[C@H]([C@@H](C)O)NC(=O)[C@H]([C@@H](C)O)NC(=O)[C@@H]2CCCN2C1=O, also called 2-2; Ex. No. 2-2) [Ac*-F-V-P-T-T-F-(N-Me)A-(p-Cl)F-(N-Me)A-D-A-P-C*-NH2] :: 72
